- Test system: MS2 coat protein
- assay_method_text: apparent KD of MS2 coat protein; designed switch direction (-1 OFF switch, 1 ON switch): -1; higher = weaker reporter binding
- condition_parameters: Eterna round: R98; input ligand: FMN 200 uM
Classification field: enter label 1 for apparent KD of MS2 coat protein values not below 30 nM, label 0 for values below it.

Does apparent KD of MS2 coat protein meet or surpass 30 nM for GAGCAGGUAAAUAAACUCAAUUACAUGAGGAUCACCCAUGUAUAGGAUAUCGUCAGGAAUACUGACGAGAAGGAUACAUCCUGC [Exclusion NG 3/14-A2] ? label 1

Does apparent KD of MS2 coat protein meet or surpass 30 nM for GCGCGCGCGCGCGCGCGCGCGCACAUGAGGAUCACCCAUGUAUAGGAUAUCGAUUGUUGUUGAUUCGAGAAGGGUAGCGCGCGC [Exclusion NG3] ? label 1

Does apparent KD of MS2 coat protein meet or surpass 30 nM for GAAUAAUAGAUCCAAUUUAUCUACAUGAGGAUCACCCAUGUGCAGGAUAUGCUAAAAUUUAAUAAGCAGAAGGGCAAGAACGGC [JR_ExcNG3_Sub016] ? label 1

Does apparent KD of MS2 coat protein meet or surpass 30 nM for UAACAGCGAAGAUAAUAAUGAAUACAUGAGGAUCACCCAUGUAAGGAUAUCGUCAGGAAUACUGACGAGAAGGUACAUACGCUG [Exclusion NG 3/17-B2] ? label 0

Does apparent KD of MS2 coat protein meet or surpass 30 nM for AUCUAUCGGUCAGGAUAUUCACAUGAGGAUCACCCAUGUGAGCCUCGGCCAAAGUGAACGCAUGUGAAGAAGGGACGGCAAAAC [Atceen] ? label 1

* * *

- Test system: MS2 coat protein
- assay_method_text: apparent KD of MS2 coat protein; designed switch direction (-1 OFF switch, 1 ON switch): -1; higher = weaker reporter binding
- condition_parameters: input ligand: none
Use apparent KD of MS2 coat protein to assign classes; range list: LOW: < 50 nM; MEDIUM: ≥ 50 nM and < 80 nM; HIGH: ≥ 80 nM

See these solved cases before continuing.
UUUAUAGUAGGAUAUACAUGAGGAUCACCCAUGUAGUAGGGAAGACCUUGGUGGGAACGUAGAAGGACUUGGAG [Eternabot (L2) Solution 44] (Eterna round: R97, puzzle: Exclusion 3) = MEDIUM
UCUCGCGGGCAAGGAUAUCCUACGCUGUUCUGGCCCGUGUAUGUUACAUGAGGAUCACCCAUGUGGGAGAAGGUGCACCAGGGC [Design 40] (Eterna round: R96, puzzle: Exclusion NG 2) = MEDIUM
GUGAAACAUGAGGAUCACCCAUGUCAGGAUAUGCGAAUUUCAUCAAAAGAUGAAAUUUGCAGAAGGGACUGUAC [Omei Ex1 A21] (Eterna round: R97, puzzle: Exclusion 1) = MEDIUM
CAGUACUGAGGAUAUACAUGAGGAUCACCCAUGUGAACCAGCUAGGAUACUAGCAAAAGUAGAAGGCAGUACUG [Mat - Exclusion 3 - Eli Mod - D17] (Eterna round: R97, puzzle: Exclusion 3) = MEDIUM
AAUUUACAUGAGGAUCACCCAUGUGAGGAUAUGGUUUCGCUGGCCGUAGCCAGUGGAACCAGAAGGCGCGUGAU [Mat - Exclusion 1 - JL Mod - D28] (Eterna round: R97, puzzle: Exclusion 1) = HIGH

Form field 'band' for GUCGUGUUAGGAUAUGGCAACUACUAAUAAAUUAGUAGUUGUUAGAAGGAACAUGAGGAUCACCCAUGUAUGAC [-23, -22.5 kcal, A 34%] (Eterna round: R97, puzzle: Exclusion 4) LOW

Form field 'band' for AAACAAGCUCGGGUGAGGGAGACCACAGAAGGACCCAAAACAUGAGGAUCACCCAUGUCAAGAGUAGAGCUUGGCAU [high scoring solution 31] (Eterna round: R96, puzzle: Sensor v2, turn-off variant 2) MEDIUM

Form field 'band' for UUCGUGCUGCUUUGCUGUACGAGUACAUGAGGAUCACCCAUGUAGGAUAUGGUACGCUUUGCGUGCUAGAAGGAUAUGUGUUGC [salish99_ExNG3_r04_506] (Eterna round: R96, puzzle: Exclusion NG 3) LOW

Form field 'band' for CGUGUACGAGGAUAUAGAUUAGAUGACAUGAGGAUCACCCAUGUGAUCAAUCUAUUUAGUUUAGAAGGUGUACAUG [JR_Ex5_Sub051] (Eterna round: R97, puzzle: Exclusion 5) LOW

Form field 'band' for CAGUACUGAGGAUAUACAUGAGGAUCACCCAUGUGAUAAGGUUAGGAAACUAACCUAUGUAGAAGGCAGUACUG [Eli x3 4.08] (Eterna round: R97, puzzle: Exclusion 3) HIGH

Form field 'band' for AGUUGGCGAGGAUAUACAUGAGGAUCACCCAUGUGAAAUCGAGAAAAAAUAGGGAAAAGUAGAAGGCGCAGACA [Ruby 63] (Eterna round: R96, puzzle: Exclusion 3) LOW

* * *

- Tested on: K4 kissing-loop RNA reporter;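 note: bound reporter read as fluorescence of individual clusters on recovered sequencing chips by microscopy, with normalized cluster intensities fitted with a binding model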
- assay_method_text: apparent KD of K4 kissing-loop reporter; higher = weaker reporter binding
- condition_parameters: Eterna round: R107; input ligand: arginine 13.2 mM
observable: apparent KD of K4 kissing-loop reporter (nM)
A number alone suffices; assume nM.

Use the examples below as a reference point.
CGCCGCAAGGCGAGCGCUCCCACUCCGGAAGGAGCGCCCGAAAGGGCAGGUAGGUCGCCGGAGUGAUGUUCCGGUGGAGGGCUCG [#2 Exclusion - Arginine A Attempt #27 (Inspired by Omei)] = 185
AACCGUGUGGCGGCCGCCACUAGUCUCCAGUGAUGUUGGAGAGAUCACGUAAGUGAUCUCCGACAUAGGACCGGGCCAUAUGGAA [Same State - Tryptophan B (Freestyle 24)] = 152
GUAACCUUGCUCGAGUGAUGUUCGAGCGAAGGAGCGCGAGAAAUCGCAGGUAGGUCGCGCUCGAAAUUUGAGCGAACAAUUAUUA [Arg A Ex t2] = 125

Query (sequence): CAUAGGAAACUAUGUUUCUCUCUUACUGAAGGAGCGCGUGAAAACGCAGGUAGGUCGCAGAAUUUAAAAGAGAGUGAUGUUCUCA [Ex Arginine A K4 11] ; field requested: apparent KD of K4 kissing-loop reporter 374

Query (sequence): GCCAGUGAUGUUGGCAUUUCGAGCCAUGAAGGAGCGCACGGAAGUGCAGGUAGGUCGCAUGGUACUUAAGAUAUUAUCCUAAGUA [Atceis] ; field requested: apparent KD of K4 kissing-loop reporter 162

Query (sequence): AUUAACCUUUUAGCUAUAUUUUUAUGUGAUACCAGACAUGGCAUAGUCCCUUGGCAGCACAUUAUAUUUACGAGUGAUGUUCGAA [JR_SSTheophyA_Sub026] ; field requested: apparent KD of K4 kissing-loop reporter 250

* * *

- System: MS2 coat protein
- assay_method_text: apparent KD of MS2 coat protein; higher = weaker reporter binding
- condition_parameters: Eterna round: R107; input ligand: arginine 13.2 mM
Classification field: enter class 1 for apparent KD of MS2 coat protein values not below 0.05 µM, class 0 for values below it.

See these solved cases before continuing.
CUAAGAGCGGCGGCCGCCACUGGUAACCGAGAGGAGGAGCUUCUGAACAUGAGGAUCACCCAUGUCAGGACCGGGUCGUCUUAGA [Same State - Tryptophan B] = class 0
GCUAGUGGCAGAAGGAGCGGCAUACAUGCAAGUGACAUGAGGAUCACCCAUGUAAGGGAAUGCCAGGUAGGUCGCUGCCACUAGC [EAB NP+V+V2 #2 +-Same Structure] = class 0
AGGAAUGUCACGGCCGCCACUGACGCUAAAAUGGGCUCGAGCCGACAUGAGGAUCACCCAUGUUCCAGGACCGGGUGAAUCCUGG [theeternabot_sameState_MS2_Trp_B_40] = class 1

Does apparent KD of MS2 coat protein meet or surpass 0.05 µM for AACAUGAGGAUCACCCAUGUCUGAACUGAAGGAGCGCUAAAUAAGGCAGGUAGGUCGCGGAAUUUUAUAUAUAUAUAUAUAUAGG [9.D] ? class 0

Does apparent KD of MS2 coat protein meet or surpass 0.05 µM for ACAUGAGGAUCACCCAUGUCUGCCACUGAUACCAGCGGAAGCCCACGCCCUUGGCAGCAGAACAUGAGGAUCACCCAUGUAGGCU [Same State Theophylline A GF28] ? class 1

Does apparent KD of MS2 coat protein meet or surpass 0.05 µM for AGUUGACAAAAGUCAGCAACAUGAUCCGAAGGAGCGGGCGAAAGCCCAGGUAGGUCGCGGACAUGAGGAUCACCCAUGUCUCCUU [ArgAX 3 #OpenEnded #Sliding] ? class 0

* * *

- Test system: MS2 coat protein
- assay_method_text: apparent KD of MS2 coat protein; higher = weaker reporter binding
- condition_parameters: Eterna round: R101; input ligand: FMN 200 uM
observable: apparent KD of MS2 coat protein (nM)
A number alone suffices; assume nM.

GGUCGACUUCAAGGAUAUGGACUGCUUUGCAGUCCAGAAGGUGAGGAUCACCCACCUACGGUCAGGUUUCUGACCGAUCGACCU [#AddUracilToBrourdLoops 4 - Jieux - Exclusion NG1] (puzzle (switch architecture): Exclusion NG 1) = 8.62

Then there is this sequence:
I'm curious: which apparent KD of MS2 coat protein was measured for AGGUAUACUUAGAAGGGCUCCAGCAAAGCUGGAGCAGGAUAUGAGGAUCACCCAUGUCACCUGACGGUCGAAACGACCGUCAGG [#SharedSequence - IExNG1: 9-1] (puzzle (switch architecture): Inverted Exclusion NG 1) tested on MS2 coat protein? 76.4
